# protocol: qHTS for Hypoxia signaling pathway (HIF-1) antagonists against the NCATS CANVASS Library (AID 1347374); note: nearly all actives have a fitted effect of over 60% in size
# reported.conditions: HRE-bla ME-180 cells, HIF-1 beta-lactamase reporter, CoCl2; series mostly up to 38.3 µM
# Excerpt: Natural products and their derivatives continue to be wellsprings of nascent therapeutic potential. […] To address this issue, the Canvass library of natural products was assembled (https://tripod.nih.gov/canvass), in collaboration with academic and industry researchers, for quantitative high-throughput screening (qHTS) across a diverse set of cell-based and biochemical assays. […]
Results filed as inconclusive are left out. Activity calls are given as the source filed them. Calls come from the whole dose curve; as a rule, active = well fitted inhibition curve with a large enough effect; inconclusive = small, poorly fitted or top-dose-only effect; inactive = no such curve, though single readings can be large or run the other way.
The reply should name one outcome from active, inactive

Examples from the recorded data:
CC(=O)NC[C@@H]1O[C@H](CC/C=C(C)/C(C)=C/C=O)[C@H](C)C[C@H]1O : inactive
C[C@@H](O)[C@H]1OC(=O)C=C2[C@]3(C)[C@H]4[C@H](OC(=O)[C@@]4(C)[C@@H](O)[C@H]4O[C@H]43)[C@H]3O[C@@]231 : active
C=CC(=C)CC[C@]1(C)[C@H]2C[C@H](OC(=O)C(C)CC)C=C3[C@H](OC(C)=O)O[C@H](OC(C)=O)[C@@]32[C@H](OC)C[C@@H]1C (some centres undefined) : active

Short answer needed: outcome of this test for COc1cc(O)c2c3c(c(O)cc(C)c13)C(=O)OC2 ?
inactive

These entries and their values trace back to PubChem BioAssay (NCATS).
